Reported pEC50 values for a set of molecules
Test system: Mobile stages of sea lice (pre-adults, adults of Lepeophtheirus salmonis)
RUN_DESCRIPTION: Adult sea lice contact assay
EXPERIMENTAL_SETUP: assessed after approximately 1 and 24 hours of continuous exposure, read-out: EC50 (sea lice inhibition, dead+damaged sea lice)
pEC50: −log10 of the molar value.

- MOLECULE: "O=C(NC1CC(F)(F)C1)c1cc(NC(=O)[C@H]2[C@H](c3cc(Cl)cc(Cl)c3)C2(Cl)Cl)ccc1Cl"
  ATTRIBUTE_MEASURED: "pEC50"
  MEASUREMENT: "≥ 9.00"
- MOLECULE: "O=C(NC1CC1)c1cc(NC(=O)[C@H]2[C@H](c3cc(Cl)cc(Cl)c3)C2(Cl)Cl)ccc1Cl"
  ATTRIBUTE_MEASURED: "pEC50"
  MEASUREMENT: "≥ 9.00"

Report pEC50 for O=C(NCC(F)(F)F)c1cc(NC(=O)[C@H]2[C@H](c3cc(F)c(F)c(F)c3)C2(Cl)Cl)ccc1Cl please. ≥ 9.00

Report pEC50 for O=C(NC1CC(F)(F)C1)c1cc(NC(=O)[C@H]2[C@H](c3cccc(C(F)(F)F)c3)C2(Cl)Cl)ccc1Cl please. 8.00 to 9.00

Report pEC50 for O=C(NCC(F)(F)F)c1cc(NC(=O)[C@H]2[C@H](c3ccc(F)c(F)c3)C2(Cl)Cl)ccc1Cl please. ≥ 9.00

Report pEC50 for C#CCNC(=O)c1cc(NC(=O)[C@H]2[C@H](c3cc(Cl)cc(Cl)c3)C2(Cl)Cl)ccc1Cl please. ≥ 9.00

Report pEC50 for C#CCNC(=O)c1cc(NC(=O)C2C(c3cc(C(F)(F)F)cc(C(F)(F)F)c3)C2(Cl)Cl)ccc1Cl (stereo not shown) please. ≥ 9.00

Report pEC50 for O=C(NC1CC(F)(F)C1)c1cc(NC(=O)[C@H]2[C@H](c3cc(Cl)cc(Cl)c3)C2(Cl)Cl)ccc1F please. ≥ 9.00

Report pEC50 for N#CC1(NC(=O)c2cc(NC(=O)[C@H]3[C@H](c4ccc(C(F)F)c(F)c4)C3(Cl)Cl)ccc2Cl)CC1 please. ≥ 9.00

Report pEC50 for N#CC1(NC(=O)c2cc(NC(=O)[C@H]3[C@H](c4ccc(F)c(Cl)c4)C3(Cl)Cl)ccc2Cl)CC1 please. ≥ 9.00

Report pEC50 for C#CC1(NC(=O)c2cc(NC(=O)[C@H]3[C@H](c4cc(Cl)cc(Cl)c4)C3(Cl)Cl)ccc2Cl)CC1 please. ≥ 9.00

Report pEC50 for C#CC1(NC(=O)c2cc(NC(=O)[C@H]3[C@H](c4cc(Cl)cc(Cl)c4)C3(Cl)Cl)ccc2F)CC1 please. ≥ 9.00

Report pEC50 for Cc1cc(C2C(C(=O)Nc3ccc(Cl)c(C(=O)NC4(C#N)CC4)c3)C2(Cl)Cl)cc(Cl)c1Cl (racemic) please. 7.60 to 8.00

Report pEC50 for N#CC1(NC(=O)c2cc(NC(=O)[C@H]3[C@H](c4cc(F)c(F)c(F)c4)C3(Cl)Cl)ccc2Cl)CC1 please. 8.00 to 9.00

Report pEC50 for N#CC1(NC(=O)c2cc(NC(=O)[C@H]3[C@H](c4ccc(Br)c(Cl)c4)C3(Cl)Cl)ccc2Cl)CC1 please. 8.00 to 9.00

Report pEC50 for N#CC1(NC(=O)c2cc(NC(=O)C3C(c4ccc(Cl)c(C(F)F)c4)C3(Cl)Cl)ccc2Cl)CC1 (racemic) please. 7.60 to 8.00

Report pEC50 for N#CC1(NC(=O)c2cc(NC(=O)[C@H]3[C@H](c4cc(Cl)c(F)c(Cl)c4)C3(Cl)Cl)ccc2Cl)CC1 please. 8.00 to 9.00

Report pEC50 for CC(NC(=O)c1cc(NC(=O)C2C(c3cc(F)c(F)c(F)c3)C2(Cl)Cl)ccc1Cl)C(F)(F)F (racemic) please. 7.60 to 8.00

Report pEC50 for O=C(NC1CC(F)(F)C1)c1cc(NC(=O)[C@H]2[C@H](c3cc(Cl)cc(Cl)c3)C2(Cl)Cl)cc(F)c1F please. 8.00 to 9.00

Report pEC50 for N#CC1(NC(=O)c2cc(NC(=O)[C@H]3[C@H](c4cc(Cl)cc(Cl)c4)C3(Cl)Cl)cc(F)c2F)CC1 please. ≥ 9.00

Report pEC50 for CC(C)(NC(=O)c1cc(NC(=O)C2C(c3cc(F)c(F)c(F)c3)C2(Cl)Cl)ccc1Cl)C(F)(F)F (stereo not shown) please. 7.60 to 8.00

Report pEC50 for N#CC1(NC(=O)c2cc(NC(=O)C3C(c4cc(Cl)cc(C(F)F)c4)C3(Cl)Cl)ccc2Cl)CC1 (racemic) please. 7.60 to 8.00

Report pEC50 for C#CC1(NC(=O)c2cc(NC(=O)[C@H]3[C@H](c4cc(Cl)cc(Cl)c4)C3(Cl)Cl)cc(F)c2F)CC1 please. ≥ 9.00

Report pEC50 for O=C(NCC(F)(F)F)c1cc(NC(=O)[C@H]2[C@H](c3cc(Cl)cc(Cl)c3)C2(Cl)Cl)ccc1Cl please. ≥ 9.00

Report pEC50 for N#CC1(NC(=O)c2cc(NC(=O)C3C(c4ccc(F)c(Cl)c4)C3(Cl)Cl)cc(F)c2F)CC1 (stereo not shown) please. ≥ 9.00
